Reported inhibition at 100 µM values for a set of compounds
Molecular target: UniProtKB Q96S37
Assay: Inhibition of human URAT1 expressed in HEK293T cells using 6-carboxylic fluorescein substrate at 100 uM by fluorescence assay relative to control
Type: cell-based
Conditions: HEK293T cells expressing human URAT1, probe 6-carboxylic fluorescein
endpoint name: inhibition at 100 µM

INSERT INTO measurements (compound_structure, endpoint_name, result) VALUES
  ('CC(=O)c1ccc(-c2cncc(C(=O)NC(C)C)c2)cc1', 'inhibition at 100 µM', '15.6%'),
  ('Cc1nc(C)c(-c2csc(Nc3ccc(O)c(C(=O)O)c3)n2)s1', 'inhibition at 100 µM', '35.5%');

* * *

Biological target: Xanthine dehydrogenase/oxidase (Homo sapiens, UniProt P47989)
Sequence (P47989 whole entry): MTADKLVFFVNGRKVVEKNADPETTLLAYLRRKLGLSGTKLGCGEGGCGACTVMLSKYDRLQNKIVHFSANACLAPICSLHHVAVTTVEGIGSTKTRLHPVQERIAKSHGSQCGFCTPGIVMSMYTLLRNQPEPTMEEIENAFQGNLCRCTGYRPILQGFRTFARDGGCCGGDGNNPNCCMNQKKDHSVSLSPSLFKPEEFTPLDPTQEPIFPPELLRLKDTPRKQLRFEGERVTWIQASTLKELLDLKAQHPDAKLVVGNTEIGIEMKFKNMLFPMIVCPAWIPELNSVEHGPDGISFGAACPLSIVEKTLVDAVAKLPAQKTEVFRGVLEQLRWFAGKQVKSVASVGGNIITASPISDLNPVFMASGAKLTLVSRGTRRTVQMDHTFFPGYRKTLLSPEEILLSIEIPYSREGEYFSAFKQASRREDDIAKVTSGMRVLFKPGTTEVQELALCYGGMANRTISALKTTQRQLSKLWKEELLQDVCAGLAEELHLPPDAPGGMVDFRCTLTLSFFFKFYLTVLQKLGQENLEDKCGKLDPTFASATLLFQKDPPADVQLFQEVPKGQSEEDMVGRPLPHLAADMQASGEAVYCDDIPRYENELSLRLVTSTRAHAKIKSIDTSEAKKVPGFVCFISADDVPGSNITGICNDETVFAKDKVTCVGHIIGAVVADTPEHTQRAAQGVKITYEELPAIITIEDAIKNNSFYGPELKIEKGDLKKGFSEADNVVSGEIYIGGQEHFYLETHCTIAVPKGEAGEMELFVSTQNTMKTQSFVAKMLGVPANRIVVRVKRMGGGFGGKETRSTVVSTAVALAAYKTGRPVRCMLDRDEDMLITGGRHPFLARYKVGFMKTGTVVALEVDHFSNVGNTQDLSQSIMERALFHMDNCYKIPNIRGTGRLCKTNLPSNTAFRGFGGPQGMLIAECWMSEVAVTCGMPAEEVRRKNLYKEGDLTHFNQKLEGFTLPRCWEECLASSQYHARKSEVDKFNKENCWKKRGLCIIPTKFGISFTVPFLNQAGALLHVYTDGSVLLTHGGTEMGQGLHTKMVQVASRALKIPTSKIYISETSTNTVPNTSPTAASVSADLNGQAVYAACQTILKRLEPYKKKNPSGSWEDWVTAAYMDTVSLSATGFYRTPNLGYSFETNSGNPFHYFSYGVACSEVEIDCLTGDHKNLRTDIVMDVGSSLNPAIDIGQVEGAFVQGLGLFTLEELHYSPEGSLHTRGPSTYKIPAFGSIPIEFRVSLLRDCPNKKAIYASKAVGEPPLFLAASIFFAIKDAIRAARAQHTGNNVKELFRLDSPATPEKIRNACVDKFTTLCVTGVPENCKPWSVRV
Assign labels as follows, please: t for IC50 below 0.04 µM; f for IC50 equal to or exceeding 0.04 µM.

INSERT INTO measurements (compound_structure, category_label) VALUES
  ('Cc1nc(C)c(-c2csc(Nc3ccc(O)c(C(=O)O)c3)n2)s1', 'f'),
  ('CC(=O)c1ccc(-c2cncc(C(=O)NC(C)C)c2)cc1', 'f'),
  ('Cc1cccc(Oc2cncc(-c3ccc(C(=O)O)c(O)c3)c2)c1', 't'),
  ('CC(C)NC(=O)c1cncc(-c2ccc(C#N)cc2)c1', 'f'),
  ('CCc1ccc(Nc2cncc(-c3ccc(C(=O)O)c(O)c3)c2)cc1', 't'),
  ('Cc1cccc(Nc2cncc(-c3ccc(C(=O)O)c(O)c3)c2)c1', 't'),
  ('O=C(O)c1ccc(-c2cncc(Nc3ccc(Cl)c(Cl)c3)c2)cc1O', 't'),
  ('CC(C)NC(=O)c1cncc(-c2ccc(C(=O)O)c(O)c2)c1', 't');

* * *

Reported pIC50 values for a set of compounds
Biological target: Solute carrier family 22 member 12 (Homo sapiens, UniProt Q96S37)
Test: Inhibition of human URAT1 expressed in HEK293T cells using 6-carboxylic fluorescein substrate by fluorescence assay
pIC50: −log10 of the molar value.
endpoint name: pIC50

INSERT INTO assay_data (compound_structure, numeric_value) VALUES
  ('O=C(O)c1ccc(-c2cncc(Nc3ccc(F)cc3)c2)cc1O', 4.04),
  ('O=C(O)c1ccc(-c2cncc(Oc3ccc(F)cc3)c2)cc1O', 3.87),
  ('O=C(O)c1ccc(-c2cncc(Nc3ccc(Cl)cc3)c2)cc1O', 4.24),
  ('Cc1ccc(Nc2cncc(-c3ccc(C(=O)O)c(O)c3)c2)cc1F', 4.51),
  ('COc1ccc(Nc2cncc(-c3ccc(C(=O)O)c(O)c3)c2)cc1', 4.23),
  ('CC(C)NC(=O)c1cncc(-c2ccc(C(=O)O)c(O)c2)c1', 3.26),
  ('Cc1ccc(Oc2cncc(-c3ccc(C(=O)O)c(O)c3)c2)cc1', 3.97),
  ('O=C(O)c1ccc(-c2cncc(Nc3ccc(F)c(Cl)c3)c2)cc1O', 4.43);

* * *

Biological target: Solute carrier family 22 member 12 (Homo sapiens, UniProt Q96S37)
Sequence (Q96S37 whole entry): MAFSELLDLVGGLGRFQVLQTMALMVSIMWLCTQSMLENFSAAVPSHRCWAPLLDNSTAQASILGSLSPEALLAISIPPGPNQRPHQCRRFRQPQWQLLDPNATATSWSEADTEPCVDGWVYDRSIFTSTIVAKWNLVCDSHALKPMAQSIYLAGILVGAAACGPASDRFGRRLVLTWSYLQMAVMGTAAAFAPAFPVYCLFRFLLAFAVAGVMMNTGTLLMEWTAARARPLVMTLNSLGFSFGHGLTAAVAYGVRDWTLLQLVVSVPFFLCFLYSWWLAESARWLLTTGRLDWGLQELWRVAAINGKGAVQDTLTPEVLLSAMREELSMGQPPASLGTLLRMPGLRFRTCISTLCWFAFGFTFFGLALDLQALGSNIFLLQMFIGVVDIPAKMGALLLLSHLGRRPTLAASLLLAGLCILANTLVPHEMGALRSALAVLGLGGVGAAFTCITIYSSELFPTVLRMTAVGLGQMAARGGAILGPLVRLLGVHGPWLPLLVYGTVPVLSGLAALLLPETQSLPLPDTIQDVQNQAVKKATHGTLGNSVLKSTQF
Experiment: Inhibition of human URAT1 expressed in HEK293T cells using 6-carboxylic fluorescein substrate by fluorescence assay
pIC50: −log10 of the molar value.
endpoint name: pIC50

INSERT INTO measurements (compound_structure, lt_gt_eq, numeric_value) VALUES
  ('CCc1ccc(Nc2cncc(-c3ccc(C(=O)O)c(O)c3)c2)cc1', '=', 4.50),
  ('CC(C)(C)c1ccc(Oc2cncc(-c3ccc(C(=O)O)c(O)c3)c2)cc1', '=', 3.90),
  ('Cc1ccc(Nc2cncc(-c3ccc(C(=O)O)c(O)c3)c2)cc1C', '=', 4.27),
  ('O=C(O)c1ccc(-c2cncc(Oc3cccc(Cl)c3)c2)cc1O', '=', 4.25),
  ('Cc1ccc(Nc2cncc(-c3ccc(C(=O)O)c(O)c3)c2)cc1', '=', 4.36),
  ('Cc1ccc(Nc2cncc(-c3ccc(C(=O)O)c(O)c3)c2)cc1Cl', '=', 4.29),
  ('O=C(O)c1ccc(-c2cncc(Nc3ccc(Cl)c(Cl)c3)c2)cc1O', '=', 4.09),
  ('CC(C)NC(=O)c1cncc(-c2ccc(F)c(C(=O)O)c2)c1', '<', 3.00),
  ('O=C(O)c1ccc(-c2cncc(Nc3ccccc3)c2)cc1O', '=', 4.48),
  ('O=C(O)c1ccc(-c2cncc(Oc3ccc(Cl)cc3)c2)cc1O', '=', 4.19),
  ('O=C(O)c1ccc(-c2cncc(Nc3cccc(Cl)c3)c2)cc1O', '=', 4.89);

* * *

Reported IC50 values for a set of compounds
Target: Solute carrier family 22 member 12 (Homo sapiens, UniProt Q96S37)
Experiment: Inhibition of human URAT1 expressed in HEK293T cells using 6-carboxylic fluorescein substrate by fluorescence assay
endpoint name: IC50 (µM)

INSERT INTO measurements (compound_structure, assay_system, lt_gt_eq, numeric_value) VALUES
  ('CC(C)(C)c1ccc(Nc2cncc(-c3ccc(C(=O)O)c(O)c3)c2)cc1', 'Solute carrier family 22 member 12 (Homo sapiens, UniProt Q96S37)', '=', 70.3),
  ('O=C(O)c1ccc(-c2cncc(Oc3ccccc3)c2)cc1O', 'Solute carrier family 22 member 12 (Homo sapiens, UniProt Q96S37)', '=', 86.7),
  ('Cc1cccc(Nc2cncc(-c3ccc(C(=O)O)c(O)c3)c2)c1', 'Solute carrier family 22 member 12 (Homo sapiens, UniProt Q96S37)', '=', 56.9),
  ('Cc1cccc(Oc2cncc(-c3ccc(C(=O)O)c(O)c3)c2)c1', 'Solute carrier family 22 member 12 (Homo sapiens, UniProt Q96S37)', '=', 86.2),
  ('CC(C)NC(=O)c1cncc(-c2ccc(Cl)c(C(=O)O)c2)c1', 'Solute carrier family 22 member 12 (Homo sapiens, UniProt Q96S37)', '>', 1000),
  ('CC(C)NC(=O)c1cncc(-c2ccc(O)c(C(=O)O)c2)c1', 'Solute carrier family 22 member 12 (Homo sapiens, UniProt Q96S37)', '=', 221);
